Cited source: patent US20100173832A1

System: ovarian carcinoma 2008 drug-sensitive cells
Experiment: Cytotoxicity against drug-sensitive ovarian carcinoma 2008 cells
Details: read-out: LC50 against drug-sensitive 2008 cells; 1 day exposure (overnight), FIG. 10
Non-standard residues stand in square brackets, D forms with d. Residues, ends and D or L forms follow the SMILES beside them. 12Ado = NCCCCCCCCCCCC(=O)O
Readout Kind: CC50

[[record]]
molecule = "NCCCCCCCCCCCC(=O)N[C@@H](CCCCN)C(=O)N[C@@H](CCCCN)C(=O)NCCCCCCCCCCCC(=O)N[C@@H](CCCCN)C(=O)N[C@@H](CCCCN)C(=O)NCCCCCCCCCCCC(=O)N[C@@H](CCCCN)C(=O)N[C@@H](CCCCN)C(=O)NCCCCCCCCCCCC(=O)N[C@@H](CCCCN)C(N)=O (H-[12Ado]KK[12Ado]KK[12Ado]KK[12Ado]K-NH2)"
readout_kind = "CC50"
experimental_result = "~15 µM"


----------
Test system: N-417 cell line
Test: XTT cell viability assay, N-417 cells
Type: cell-based
Conditions: 24 hours incubation, XTT; read-out: Cancer LC50 Human small-cell lung carcinoma N-417
Non-standard residues stand in square brackets, D forms with d. Residues, ends and D or L forms follow the SMILES beside them. *: point of attachment. Lauroyl = CCCCCCCCCCCC(=O)*; 12Ado = NCCCCCCCCCCCC(=O)O; Octanoyl = CCCCCCCC(=O)*
Readout Kind: CC50

[[record]]
molecule = "CCCCCCCCCCCC(=O)N[C@@H](CCCCN)C(=O)N[C@@H](CCCCN)C(=O)NCCCCCCCCCCCC(=O)N[C@@H](CCCCN)C(=O)N[C@@H](CCCCN)C(=O)NCCCCCCCCCCCC(=O)N[C@@H](CCCCN)C(=O)N[C@@H](CCCCN)C(=O)NCCCCCCCCCCCC(=O)N[C@@H](CCCCN)C(N)=O (Lauroyl-KK[12Ado]KK[12Ado]KK[12Ado]K-NH2)"
readout_kind = "CC50"
experimental_result = "17 µM"

[[record]]
molecule = "CCCCCCCC(=O)N[C@@H](CCCCN)C(=O)N[C@@H](CCCCN)C(=O)NCCCCCCCCCCCC(=O)N[C@@H](CCCCN)C(=O)N[C@@H](CCCCN)C(=O)NCCCCCCCCCCCC(=O)N[C@@H](CCCCN)C(N)=O [C8K(KNC12K)2NH2] (Octanoyl-KK[12Ado]KK[12Ado]K-NH2)"
readout_kind = "CC50"
experimental_result = "> 16 µM"

[[record]]
molecule = "CCCCCCCC(=O)N[C@@H](CCCCN)C(=O)N[C@@H](CCCCN)C(=O)NCCCCCCCCCCCC(=O)N[C@@H](CCCCN)C(=O)N[C@@H](CCCCN)C(=O)NCCCCCCCCCCCC(=O)N[C@@H](CCCCN)C(=O)N[C@@H](CCCCN)C(=O)NCCCCCCCCCCCC(=O)N[C@@H](CCCCN)C(N)=O [C8K(KNC12K)3NH2] (Octanoyl-KK[12Ado]KK[12Ado]KK[12Ado]K-NH2)"
readout_kind = "CC50"
experimental_result = "10 µM"

[[record]]
molecule = "NCCCCCCCCCCCC(=O)N[C@@H](CCCCN)C(=O)NCCCCCCCCCCCC(=O)N[C@@H](CCCCN)C(=O)N[C@@H](CCCCN)C(=O)NCCCCCCCCCCCC(=O)N[C@@H](CCCCN)C(=O)N[C@@H](CCCCN)C(=O)NCCCCCCCCCCCC(=O)N[C@@H](CCCCN)C(N)=O [NC12(KNC12K)3NH2] (H-[12Ado]K[12Ado]KK[12Ado]KK[12Ado]K-NH2)"
readout_kind = "CC50"
experimental_result = "> 16 µM"

[[record]]
molecule = "NCCCCCCCCCCCC(=O)N[C@@H](CCCCN)C(=O)N[C@@H](CCCCN)C(=O)NCCCCCCCCCCCC(=O)N[C@@H](CCCCN)C(=O)N[C@@H](CCCCN)C(=O)NCCCCCCCCCCCC(=O)N[C@@H](CCCCN)C(N)=O [NC12K(KNC12K)2NH2] (H-[12Ado]KK[12Ado]KK[12Ado]K-NH2)"
readout_kind = "CC50"
experimental_result = "> 16 µM"

[[record]]
molecule = "NCCCC[C@H](NC(=O)CCCCCCCCCCCNC(=O)[C@H](CCCCN)NC(=O)[C@H](CCCCN)NC(=O)CCCCCCCCCCCNC(=O)[C@H](CCCCN)NC(=O)[C@@H](N)CCCCN)C(N)=O [K(KNC12K)2NH2] (HELM PEPTIDE1{K.K.[O=C(CCCCCCCCCCCN[*:1])[*:2]].K.K.[O=C(CCCCCCCCCCCN[*:1])[*:2]].K.[am]}$$$$V2.0)"
readout_kind = "CC50"
experimental_result = "> 16 µM"

[[record]]
molecule = "CCCCCCCCCCCC(=O)N[C@@H](CCCCN)C(=O)NCCCCCCCCCCCC(=O)N[C@@H](CCCCN)C(=O)N[C@@H](CCCCN)C(=O)NCCCCCCCCCCCC(=O)N[C@@H](CCCCN)C(=O)N[C@@H](CCCCN)C(=O)NCCCCCCCCCCCC(=O)N[C@@H](CCCCN)C(N)=O (Lauroyl-K[12Ado]KK[12Ado]KK[12Ado]K-NH2)"
readout_kind = "CC50"
experimental_result = "< 16 µM"

[[record]]
molecule = "NCCCCCCCCCCCC(=O)N[C@@H](CCCCN)C(=O)N[C@@H](CCCCN)C(=O)NCCCCCCCCCCCC(=O)N[C@@H](CCCCN)C(N)=O [NC12KKNC12KNH2] (HELM PEPTIDE1{[NCCCCCCCCCCCC(=O)[*:2]].K.K.[O=C(CCCCCCCCCCCN[*:1])[*:2]].K.[am]}$$$$V2.0)"
readout_kind = "CC50"
experimental_result = "> 16 µM"

[[record]]
molecule = "CCCCCCCCCCCC(=O)N[C@@H](CCCCN)C(=O)N[C@@H](CCCCN)C(=O)NCCCCCCCCCCCC(=O)N[C@@H](CCCCN)C(=O)N[C@@H](CCCCN)C(=O)NCCCCCCCCCCCC(=O)N[C@@H](CCCCN)C(N)=O [C12K(KNC12K)2NH2] (Lauroyl-KK[12Ado]KK[12Ado]K-NH2)"
readout_kind = "CC50"
experimental_result = "11 µM"

[[record]]
molecule = "CCCCCCCCCCCC(=O)N[C@@H](CCCCN)C(=O)NCCCCCCCCCCCC(=O)N[C@@H](CCCCN)C(=O)N[C@@H](CCCCN)C(=O)NCCCCCCCCCCCC(=O)N[C@@H](CCCCN)C(N)=O [C12(KNC12K)2NH2] (Lauroyl-K[12Ado]KK[12Ado]K-NH2)"
readout_kind = "CC50"
experimental_result = "10 µM"

[[record]]
molecule = "NCCCC[C@H](NC(=O)CCCCCCCCCCCNC(=O)[C@H](CCCCN)NC(=O)[C@H](CCCCN)NC(=O)CCCCCCCCCCCNC(=O)[C@H](CCCCN)NC(=O)[C@H](CCCCN)NC(=O)CCCCCCCCCCCNC(=O)[C@@H](N)CCCCN)C(N)=O [(KNC12K)3NH2] (H-K[12Ado]KK[12Ado]KK[12Ado]K-NH2)"
readout_kind = "CC50"
experimental_result = "> 16 µM"

[[record]]
molecule = "CCCCCCCC(=O)N[C@@H](CCCCN)C(=O)NCCCCCCCCCCCC(=O)N[C@@H](CCCCN)C(=O)N[C@@H](CCCCN)C(=O)NCCCCCCCCCCCC(=O)N[C@@H](CCCCN)C(N)=O [C8(KNC12K)2NH2] (Octanoyl-K[12Ado]KK[12Ado]K-NH2)"
readout_kind = "CC50"
experimental_result = "> 16 µM"

[[record]]
molecule = "NCCCC[C@H](NC(=O)CCCCCCCCCCCNC(=O)[C@H](CCCCN)NC(=O)[C@H](CCCCN)NC(=O)CCCCCCCCCCCNC(=O)[C@@H](N)CCCCN)C(N)=O [(KNC12K)2NH2] (HELM PEPTIDE1{K.[O=C(CCCCCCCCCCCN[*:1])[*:2]].K.K.[O=C(CCCCCCCCCCCN[*:1])[*:2]].K.[am]}$$$$V2.0)"
readout_kind = "CC50"
experimental_result = "> 16 µM"


----------
Each entry below carries its recorded CC50 at 24 h.
Assay: XTT cell viability assay, non-cancerous cardiac fibroblasts (CF)
Format: cell-based, rat
Conditions: rat, primary non-cancerous cardiac fibroblasts (CF), 24 hours incubation, XTT, non-cancerous cells; read-out: Cancer LC50 Rat primary cardiac fibroblast CF
Non-standard residues stand in square brackets, D forms with d. Residues, ends and D or L forms follow the SMILES beside them. *: point of attachment. Lauroyl = CCCCCCCCCCCC(=O)*; 12Ado = NCCCCCCCCCCCC(=O)O; Octanoyl = CCCCCCCC(=O)*
Readout Kind: CC50 at 24 h

[[record]]
compound = "NCCCCCCCCCCCC(=O)N[C@@H](CCCCN)C(=O)N[C@@H](CCCCN)C(=O)NCCCCCCCCCCCC(=O)N[C@@H](CCCCN)C(N)=O [NC12KKNC12KNH2] (HELM PEPTIDE1{[NCCCCCCCCCCCC(=O)[*:2]].K.K.[O=C(CCCCCCCCCCCN[*:1])[*:2]].K.[am]}$$$$V2.0)"
readout_kind = "CC50 at 24 h"
experimental_result = "> 16 µM"

[[record]]
compound = "NCCCC[C@H](NC(=O)CCCCCCCCCCCNC(=O)[C@H](CCCCN)NC(=O)[C@H](CCCCN)NC(=O)CCCCCCCCCCCNC(=O)[C@@H](N)CCCCN)C(N)=O [(KNC12K)2NH2] (HELM PEPTIDE1{K.[O=C(CCCCCCCCCCCN[*:1])[*:2]].K.K.[O=C(CCCCCCCCCCCN[*:1])[*:2]].K.[am]}$$$$V2.0)"
readout_kind = "CC50 at 24 h"
experimental_result = "> 16 µM"

[[record]]
compound = "CCCCCCCC(=O)N[C@@H](CCCCN)C(=O)NCCCCCCCCCCCC(=O)N[C@@H](CCCCN)C(=O)N[C@@H](CCCCN)C(=O)NCCCCCCCCCCCC(=O)N[C@@H](CCCCN)C(N)=O [C8(KNC12K)2NH2] (Octanoyl-K[12Ado]KK[12Ado]K-NH2)"
readout_kind = "CC50 at 24 h"
experimental_result = "> 16 µM"

[[record]]
compound = "CCCCCCCCCCCC(=O)N[C@@H](CCCCN)C(=O)NCCCCCCCCCCCC(=O)N[C@@H](CCCCN)C(=O)N[C@@H](CCCCN)C(=O)NCCCCCCCCCCCC(=O)N[C@@H](CCCCN)C(=O)N[C@@H](CCCCN)C(=O)NCCCCCCCCCCCC(=O)N[C@@H](CCCCN)C(N)=O (Lauroyl-K[12Ado]KK[12Ado]KK[12Ado]K-NH2)"
readout_kind = "CC50 at 24 h"
experimental_result = "> 16 µM"

[[record]]
compound = "NCCCCCCCCCCCC(=O)N[C@@H](CCCCN)C(=O)N[C@@H](CCCCN)C(=O)NCCCCCCCCCCCC(=O)N[C@@H](CCCCN)C(=O)N[C@@H](CCCCN)C(=O)NCCCCCCCCCCCC(=O)N[C@@H](CCCCN)C(N)=O [NC12K(KNC12K)2NH2] (H-[12Ado]KK[12Ado]KK[12Ado]K-NH2)"
readout_kind = "CC50 at 24 h"
experimental_result = "> 16 µM"

[[record]]
compound = "CCCCCCCC(=O)N[C@@H](CCCCN)C(=O)N[C@@H](CCCCN)C(=O)NCCCCCCCCCCCC(=O)N[C@@H](CCCCN)C(=O)N[C@@H](CCCCN)C(=O)NCCCCCCCCCCCC(=O)N[C@@H](CCCCN)C(=O)N[C@@H](CCCCN)C(=O)NCCCCCCCCCCCC(=O)N[C@@H](CCCCN)C(N)=O [C8K(KNC12K)3NH2] (Octanoyl-KK[12Ado]KK[12Ado]KK[12Ado]K-NH2)"
readout_kind = "CC50 at 24 h"
experimental_result = "25 µM"

[[record]]
compound = "CCCCCCCC(=O)N[C@@H](CCCCN)C(=O)NCCCCCCCCCCCC(=O)N[C@@H](CCCCN)C(=O)N[C@@H](CCCCN)C(=O)NCCCCCCCCCCCC(=O)N[C@@H](CCCCN)C(=O)N[C@@H](CCCCN)C(=O)NCCCCCCCCCCCC(=O)N[C@@H](CCCCN)C(N)=O [C8(KNC12K)3NH2] (Octanoyl-K[12Ado]KK[12Ado]KK[12Ado]K-NH2)"
readout_kind = "CC50 at 24 h"
experimental_result = "37 µM"

